Biological target: Lysosomal acid glucosylceramidase (Homo sapiens, UniProt P04062)
Sequence (P04062 whole entry): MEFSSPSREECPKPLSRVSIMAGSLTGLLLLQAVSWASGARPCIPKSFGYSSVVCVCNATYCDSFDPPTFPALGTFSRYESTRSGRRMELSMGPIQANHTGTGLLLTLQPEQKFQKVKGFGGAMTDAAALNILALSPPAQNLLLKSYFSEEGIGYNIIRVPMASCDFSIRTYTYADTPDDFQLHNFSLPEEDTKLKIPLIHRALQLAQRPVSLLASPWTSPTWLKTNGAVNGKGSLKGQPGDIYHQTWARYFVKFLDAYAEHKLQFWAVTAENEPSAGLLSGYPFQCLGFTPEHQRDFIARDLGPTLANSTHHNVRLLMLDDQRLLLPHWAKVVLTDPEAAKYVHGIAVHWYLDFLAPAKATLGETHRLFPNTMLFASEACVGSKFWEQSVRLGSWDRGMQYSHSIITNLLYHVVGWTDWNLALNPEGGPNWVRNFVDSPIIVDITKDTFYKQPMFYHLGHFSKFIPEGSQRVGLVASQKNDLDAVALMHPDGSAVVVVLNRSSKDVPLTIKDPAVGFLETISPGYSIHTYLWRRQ
Assay: Inhibition of human GCase assessed as formation of 4-methylumbelliferone from […] at pH 5 by luminescence spectrophotometry
PROPERTY_MEASURED: Ki

>>> meas_value("O=C(CCC(F)(F)C(F)(F)C(F)(F)C(F)(F)F)NCCCCNC(=S)N1[C@@H]2CO[C@H]1[C@H](O)[C@@H](O)[C@@H]2O")
"20.8 µM"
>>> meas_value("O=C(CCC(F)(F)C(F)(F)C(F)(F)C(F)(F)C(F)(F)C(F)(F)F)NCCCCCCCCCNC(=S)N1[C@@H]2CO[C@H]1[C@H](O)[C@@H](O)[C@@H]2O")
"32.6 µM"
>>> meas_value("O=C(CCC(F)(F)C(F)(F)C(F)(F)C(F)(F)C(F)(F)C(F)(F)F)NCCCCNC(=S)N1[C@@H]2CO[C@H]1[C@H](O)[C@@H](O)[C@@H]2O")
"90 µM"
>>> meas_value("O=C(CCC(F)(F)C(F)(F)C(F)(F)C(F)(F)F)NCCCCCCCCCNC(=S)N1[C@@H]2CO[C@H]1[C@H](O)[C@@H](O)[C@@H]2O")
"80 µM"
